B1: RAB11B (parent)
chain: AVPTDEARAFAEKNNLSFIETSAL

# Variants of: B1
# Measurement protocol: protein stability index of a GFP-peptide fusion (GPS, HEK-293T) (PSI 1-6); higher = more stable;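 further: lentivirally expressed fusions sorted by FACS into six bins by GFP to DsRed ratio, PSI derived from sequencing read proportions per bin multiplied by bin number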
# Measurement conditions: c terminus: a fixed tail appended
Listing of entries alongside the reported protein stability index.
Just the number, please, no unit attached.

See these solved cases before continuing.
1. K13A :: 3.08
2. P3M :: 2.43
3. E6Q :: 2.24
4. S22Q :: 3.56

INPUT: # protein stability index lookup, item "A9G"
OUTPUT: 2.85

INPUT: So what does the record say about protein stability index for "E6F" ?
OUTPUT: 1.66

INPUT: Please give the measured protein stability index for this variant: "T21V"
OUTPUT: 1.52

INPUT: Given "A9T" , state its recorded protein stability index.
OUTPUT: 3.02

INPUT: Entry under review: "R8E" . Reported protein stability index?
OUTPUT: 3.31

INPUT: Reported protein stability index, variant "I19R" : ____
OUTPUT: 4.54

INPUT: Item under review: "N14I" . Reported protein stability index?
OUTPUT: 2.23

INPUT: Looking for the measured protein stability index of "R8L" , can you help?
OUTPUT: 2.33
